The values you see were collected from ChEMBL document CHEMBL5584273.

System: Bacillus subtilis
measurement protocol: Antibiotic activity against Bacillus subtilis ATCC 6051 assessed as inhibition of bacterial growth incubated for 16 hrs in presence of 0.002% polysorbate 80
Type: functional
Bridge positions count the residues as written; N and C are the ends. Square brackets hold non-standard residues; d marks the D form. Side chains are listed from the residue outwards. Peptide text beside a SMILES is read from it. * marks the point of attachment. Ser(O-(NMe-dPhe-Ile)) = CC[C@H](C)[C@H](NC(=O)[C@@H](Cc1ccccc1)NC)C(=O)OC[C@H](N)C(=O)*; d(aIle) = CC[C@H](C)[C@@H](N)C(=O)O; dNMeF = CN[C@H](Cc1ccccc1)C(=O)O
Recorded MIC values for a group of molecules are listed next.

[
  {
    "molecule": "CN[C@H](CC(C)C)C(=O)N[C@H]1C(=O)N[C@@H](CC(N)=O)C(=O)N[C@H]2C(=O)N[C@H]3C(=O)N[C@H](C(=O)N[C@H](C(=O)O)c4cc(O)cc(O)c4-c4cc3ccc4O)[C@H](O)c3ccc(c(Cl)c3)Oc3cc2cc(c3O[C@@H]2O[C@H](CO)[C@@H](O)[C@H](O)[C@H]2O[C@H]2C[C@](C)(N)[C@H](O)[C@H](C)O2)Oc2ccc(cc2Cl)[C@H]1O",
    "MIC (µg/mL)": 0.5
  },
  {
    "molecule": "CC[C@H](C)[C@H](NC(=O)[C@H](NC(=O)[C@@H](CCCNC(=N)N)NC(=O)[C@@H](N)COC(=O)[C@@H](NC(=O)[C@@H](Cc1ccccc1)NC)[C@@H](C)CC)[C@@H](C)CC)C(=O)N[C@@H](CO)C(=O)N[C@H]1C(=O)N[C@@H](C)C(=O)N[C@@H](CC(C)C)C(=O)N[C@@H]([C@@H](C)CC)C(=O)O[C@H]1C (H-S([Ile-dNMeF])[dR][d(aIle)]IS[dT]ALI; ester 6-C)",
    "MIC (µg/mL)": 0.008
  },
  {
    "molecule": "CC[C@H](C)[C@H](NC(=O)[C@@H](Cc1ccccc1)NC)C(=O)OC[C@H](N)C(=O)N[C@H](CCCNC(=N)N)C(=O)N[C@@H](C(=O)N[C@H](C(=O)OC[C@H](N)C(=O)N[C@H]1C(=O)N[C@@H](C)C(=O)N[C@@H](CC(C)C)C(=O)N[C@@H]([C@@H](C)CC)C(=O)O[C@H]1C)[C@@H](C)CC)[C@@H](C)CC (H-S([Ile-d(aIle)-dR-Ser(O-(NMe-dPhe-Ile))])[dT]ALI; ester 2-C)",
    "MIC (µg/mL)": 0.016
  },
  {
    "molecule": "CC[C@H](C)[C@H](NC(=O)[C@@H](Cc1ccccc1)NC)C(=O)N[C@@H](CO)C(=O)N[C@H](CCC(N)=O)C(=O)N[C@@H](C(=O)N[C@H](C(=O)OC[C@H](N)C(=O)N[C@H]1C(=O)N[C@@H](C)C(=O)N[C@@H](C[C@H]2CNC(=N)N2)C(=O)N[C@@H]([C@@H](C)CC)C(=O)O[C@H]1C)[C@@H](C)CC)[C@@H](C)CC",
    "MIC (µg/mL)": 0.062
  }
]
